molecular target: human plasma kallikrein (Homo sapiens); experiment: Determination of the plasma kallikrein activity (fluorogenic peptide substrate, AMC cleavage); format: biochemical; conditions: plasma kallikrein from Kordia 0.6 nM; substrate H-Pro-Phe-Arg-AMC; 30 min at 22° C.; read-out: IC50 [nM] (Table B, plasma kallikrein inhibition)
Sequence (P03952 391-638 limits assumed): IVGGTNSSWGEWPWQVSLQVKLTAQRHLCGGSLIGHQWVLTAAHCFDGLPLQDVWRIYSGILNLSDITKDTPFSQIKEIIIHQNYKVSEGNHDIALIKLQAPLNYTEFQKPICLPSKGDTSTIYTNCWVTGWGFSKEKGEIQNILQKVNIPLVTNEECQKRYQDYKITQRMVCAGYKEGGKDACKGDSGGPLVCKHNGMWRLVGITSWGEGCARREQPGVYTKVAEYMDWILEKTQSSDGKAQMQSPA
Sequence (P03952 20-390 partner limits assumed): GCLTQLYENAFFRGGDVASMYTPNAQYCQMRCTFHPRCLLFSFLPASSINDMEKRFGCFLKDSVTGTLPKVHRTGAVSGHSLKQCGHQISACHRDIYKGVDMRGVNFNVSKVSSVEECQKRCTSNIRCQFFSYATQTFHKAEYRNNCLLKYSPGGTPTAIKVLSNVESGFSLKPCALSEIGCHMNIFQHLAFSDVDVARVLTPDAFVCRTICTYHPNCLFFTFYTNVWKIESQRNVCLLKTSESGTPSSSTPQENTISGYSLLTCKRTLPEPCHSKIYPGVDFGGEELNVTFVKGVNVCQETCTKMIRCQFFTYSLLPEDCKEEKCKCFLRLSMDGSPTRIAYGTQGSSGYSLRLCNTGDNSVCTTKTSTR
Please use Met for IC50 under 10 nM and Not met for everything else, ties included.

>  <compound>
CCOCCC(C(=O)Nc1ccc(C(N)=O)c(F)c1)n1cc(OC)c(-c2cc(Cl)ccc2C#N)cc1=O (racemic)

>  <group_label>
Not met

$$$$
>  <compound>
CCC(C(=O)Nc1ccc(C(=O)NC)cc1)n1cc(OC)c(-c2cc(Cl)ccc2C#N)cc1=O (racemic)

>  <group_label>
Not met

$$$$
>  <compound>
COc1cc(NC(=O)C(Cc2ccn(C)n2)n2cc(OC)c(-c3cc(Cl)ccc3C#N)cc2=O)ccc1C(N)=O (racemic)

>  <group_label>
Met

$$$$
>  <compound>
COCCC(C(=O)Nc1ccc(C(N)=O)c(OC)c1)n1cc(OC)c(-c2cc(Cl)ccc2C#N)cc1=O (racemic)

>  <group_label>
Met

$$$$
>  <compound>
COCCC(C(=O)Nc1ccc(C(N)=O)c(F)c1)n1cc(OC)c(-c2cc(OC)ccc2C#N)cc1=O (racemic)

>  <group_label>
Not met

$$$$
>  <compound>
COCCC(C(=O)Nc1ccc(C(N)=O)c(F)c1)n1cc(OC)c(-c2cc(C)ccc2C#N)cc1=O (racemic) [Example 49]

>  <group_label>
Not met

$$$$

Reference source: patent US20170298052A1
